Biological target: native pepsin (Np) (Sus scrofa, UniProt P00791)
Construct: Only the R13 and K36 side-chains of the PS form hydrogen bonds with the mature pepsin domain; purchased Sigma (St. Louis, MO, USA)
Sequence (P00791 60-385): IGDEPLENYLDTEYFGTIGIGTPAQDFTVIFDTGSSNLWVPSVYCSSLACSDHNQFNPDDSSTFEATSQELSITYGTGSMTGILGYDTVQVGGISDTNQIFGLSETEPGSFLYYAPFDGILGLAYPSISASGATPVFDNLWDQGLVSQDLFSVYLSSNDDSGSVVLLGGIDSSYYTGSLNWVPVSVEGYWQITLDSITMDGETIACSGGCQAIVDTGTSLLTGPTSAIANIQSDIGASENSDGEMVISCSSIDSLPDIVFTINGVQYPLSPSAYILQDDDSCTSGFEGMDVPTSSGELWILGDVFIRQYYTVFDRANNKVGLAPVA
Assay: PS binding to Np (competitive inhibition of KPAEFF(NO2)AL hydrolysis)
Assay type: biochemical, porcine
Settings: 10 nM Np, 20 mM acetic acid/NaOH pH 5.3, 100 mM NaCl, 20°C, 5 min incubation; substrate KPAEFF(NO2)AL 0.1 mM, absorbance 300 nm; competitive model; mean ± SD from non-linear curve fitting, 3-5 measurements; read-out: K i (PS-Np inhibition constant)
Where no end group is shown, it is not given here.
quantityKind: Ki (nM)

Worked set:
INSERT INTO measurements (residues, quantitykind, testresult) VALUES
  ('LVKAPLVRKKSLRQNLIKNGKLKDFLKTHKHNPASKYFPEAAAL [V4A]', 'Ki', 50.9),
  ('LVKVPLVRKKSLRQNLIKNGKLKDFLKTHKHNPASAYFPEAAAL [K36A]', 'Ki', 113),
  ('LVKVPLVRKKSLRQNLAKNGKLKDFLKTHKHNPASKYFPEAAAL [I17A]', 'Ki', 394),
  ('LVKVPLVRKKALRQNLIKNGKLKDFLKTHKHNPASKYFPEAAAL [S11A]', 'Ki', 270),
  ('LVKVPAVRKKSLRQNLIKNGKLKDFLKTHKHNPASKYFPEAAAL [L6A]', 'Ki', 193);

(a) LVKVPLVRKKSLRQNLIKNGKLKDALKTHKHNPASKYFPEAAAL [F25A]
(b) LVKVPLVRKKSLRQNLIKNGKLKDFLKTHKHNPASKYFPEAAAL [WT]
(c) LVKVPLVRKKSLAQNLIKNGKLKDFLKTHKHNPASKYFPEAAAL [R13A]
Query: Please list these sequences in decreasing order of Ki. Put the labels in the order asked and list them.
Result: c, a, b
(c: 382 nM, a: 230 nM, b: 64.8 nM)

###

Biological target: refolded pepsin (Rp) (Sus scrofa, UniProt P00791)
Construct: Only the R13 and K36 side-chains of the PS form hydrogen bonds with the mature pepsin domain; purchased Sigma (St. Louis, MO, USA)
Sequence (P00791 60-385): as the sequence (P00791 60-385) above
Assay: PS binding to Rp (Trp-fluorescence)
Design: species or system porcine
Details: from K d, 20°C, pH 5.3, relative to WT; ± SD by propagation of errors
Where no end group is shown, it is not given here.
quantityKind: ΔΔGPS-Rp (change in PS-Rp binding energy upon mutation) (kcal/mol)

// below: answered sequences
INSERT INTO measurements (residues, testtarget, testresult) VALUES
  ('LVKVPLVRKKSLAQNLIKNGKLKDFLKTHKHNPASKYFPEAAAL [R13A]', 'refolded pepsin (Rp) (Sus scrofa, UniProt P00791)', 1.08),
  ('LVKVPLVRKKSLRQNLIKNGKLKDFLKTHKHNPASAYFPEAAAL [K36A]', 'refolded pepsin (Rp) (Sus scrofa, UniProt P00791)', 0.50),
  ('LVKAPLVRKKSLRQNLIKNGKLKDFLKTHKHNPASKYFPEAAAL [V4A]', 'refolded pepsin (Rp) (Sus scrofa, UniProt P00791)', 0.79),
  ('LVKVPLVRKKALRQNLIKNGKLKDFLKTHKHNPASKYFPEAAAL [S11A]', 'refolded pepsin (Rp) (Sus scrofa, UniProt P00791)', 0.47),
  ('LVKVPAVRKKSLRQNLIKNGKLKDFLKTHKHNPASKYFPEAAAL [L6A]', 'refolded pepsin (Rp) (Sus scrofa, UniProt P00791)', 0.43);

(A) LVKVPLVRKKSLRQNLIKNGKLKDALKTHKHNPASKYFPEAAAL [F25A]
(B) LVKVPLVRKKSLRQNLAKNGKLKDFLKTHKHNPASKYFPEAAAL [I17A]
Query: Field: lower recorded ΔΔGPS-Rp (change in PS-Rp binding energy upon mutation) (choose A or B ) Answer format: the label of the selected item.
Result: B
(B: -0.21 kcal/mol, A: -0.12 kcal/mol)
